test: Retardation factor of the compound using CHCl3-MeOH at ratio of 6:1 as solvent system by thin layer chromatography; type: physicochemical

Compound	Rf
CCOC(=O)CC[C@H](NC(=O)CC[C@H](NC(=O)c1ccc(N(C)Cc2cnc3nc(N)nc(N)c3n2)cc1)C(=O)N[C@@H](CCC(=O)OCC)C(=O)OCC)C(=O)OCC	0.46
CCOC(=O)CC[C@H](NC(=O)CC[C@H](NC(=O)c1ccc(N(C)Cc2cnc3nc(N)nc(N)c3n2)cc1)C(=O)O)C(=O)OCC	0.01
CCOC(=O)CCC(NC(=O)CCC(NC(=O)c1ccc(N(C)Cc2cnc3nc(N)nc(N)c3n2)cc1)C(=O)NC(CCC(=O)OCC)C(=O)OCC)C(=O)OCC (mixture of isomers)	0.4
CCOC(=O)CC[C@H](NC(=O)[C@H](CCC(=O)O)NC(=O)c1ccc(N(C)Cc2cnc3nc(N)nc(N)c3n2)cc1)C(=O)OCC	0.04

====

Reported Rf values follow for various compounds
assay: Retardation factor of the compound using CHCl3-MeOH at ratio of 1:1 as solvent system by thin layer chromatography; format: physicochemical
Metric: Rf

Compound	Result
CCOC(=O)CC[C@H](NC(=O)CC[C@H](NC(=O)c1ccc(N(C)Cc2cnc3nc(N)nc(N)c3n2)cc1)C(=O)N[C@@H](CCC(=O)OCC)C(=O)OCC)C(=O)OCC	0.82
CCOC(=O)CC[C@H](NC(=O)CC[C@H](NC(=O)c1ccc(N(C)Cc2cnc3nc(N)nc(N)c3n2)cc1)C(=O)O)C(=O)OCC	0.23
CCOC(=O)CC[C@H](NC(=O)[C@H](CCC(=O)O)NC(=O)c1ccc(N(C)Cc2cnc3nc(N)nc(N)c3n2)cc1)C(=O)OCC	0.28
CCOC(=O)CC[C@H](NC(=O)CC[C@H](NC(=O)c1ccc(N(C)Cc2cnc3nc(N)nc(N)c3n2)cc1)C(=O)OCC)C(=O)OCC	0.79
CCOC(=O)CC[C@H](NC(=O)CC[C@@H](NC(=O)c1ccc(N(C)Cc2cnc3nc(N)nc(N)c3n2)cc1)C(=O)N[C@@H](CCC(=O)OCC)C(=O)OCC)C(=O)OCC	0.82
CCOC(=O)CC[C@H](NC(=O)c1ccc(N(C)Cc2cnc3nc(N)nc(N)c3n2)cc1)C(=O)N[C@@H](CCC(=O)OCC)C(=O)OCC	0.79
CCOC(=O)CCC(NC(=O)CCC(NC(=O)c1ccc(N(C)Cc2cnc3nc(N)nc(N)c3n2)cc1)C(=O)NC(CCC(=O)OCC)C(=O)OCC)C(=O)OCC (mixture of isomers)	0.82

====

experiment: Retardation factor of the compound using CHCl3-MeOH at ratio of 6:1 as solvent system by thin layer chromatography; type: physicochemical

Smiles String	Rf
CCOC(=O)CC[C@H](NC(=O)CC[C@H](NC(=O)c1ccc(N(C)Cc2cnc3nc(N)nc(N)c3n2)cc1)C(=O)OCC)C(=O)OCC	0.44
CCOC(=O)CC[C@H](NC(=O)c1ccc(N(C)Cc2cnc3nc(N)nc(N)c3n2)cc1)C(=O)N[C@@H](CCC(=O)OCC)C(=O)OCC	0.4
CCOC(=O)CC[C@H](NC(=O)CC[C@@H](NC(=O)c1ccc(N(C)Cc2cnc3nc(N)nc(N)c3n2)cc1)C(=O)N[C@@H](CCC(=O)OCC)C(=O)OCC)C(=O)OCC	0.43
